Listed below: pest or weed control at 125 g/ha values for each entry.
tested on: giant foxtail (Setaria faberii); test: Test A postemergence; format: in vivo; conditions: Setaria faberi, post-emergence, 240 h, 125 g ai/ha, postemergence; visual injury after approximately 10 d; 0 to 100 scale (0 no effect, 100 complete control); read-out: Plant response rating, Foxtail, Giant

{"columns": ["compound", "pest or weed control at 125 g/ha / %"],
 "data": [
  ["O=C1NC[C@H](c2cccc(C(F)(F)F)c2)[C@H]1C(=O)Nc1ccccc1C1CC1", 0],
  ["CN1C[C@H](c2cc(F)cc(F)c2)[C@@H](C(=O)Nc2ccc(F)cc2C(F)(F)F)C1=O", 80],
  ["O=C1NC[C@H](c2cscn2)[C@H]1C(=O)Nc1ccccc1F", 50],
  ["CN1CC(c2cccc(OC/C=C/Cl)c2)C(C(=O)Nc2cccc(F)c2F)C1=O (centres unmarked)", 30],
  ["O=C1NC[C@H](c2ccc3c(c2)OCO3)[C@H]1C(=O)Nc1ccccc1F", 0],
  ["CCc1ccc([C@H]2CNC(=S)[C@@H]2C(=O)Nc2ccccc2SC)cc1", 0],
  ["CCc1ccc([C@H]2CNC(=S)[C@@H]2C(=O)Nc2cccc(F)c2F)cc1", 20],
  ["C/C=C/C1CNC(=O)C1C(=O)Nc1ccccc1F (centres unmarked)", 0]
]}

###

tested on: barnyardgrass (Echinochloa crus-galli); test: Test A preemergence; assay type: in vivo; details: Echinochloa crus-galli, pre-emergence, 240 h, Preemergence, 125 g ai/ha; 0 to 100 scale (0 no effect, 100 complete control); read-out: Plant response rating, Barnyardgrass

{"columns": ["smilesRecord", "pest or weed control at 125 g/ha"],
 "data": [
  ["N#Cc1cc([C@H]2CNC(=O)[C@]2(O)C(=O)Nc2cccc(F)c2F)ccc1F", "0%"],
  ["COc1c([C@H]2CN(C)C(=O)[C@@H]2C(=O)Nc2ccccc2SC)cccc1C(F)(F)F", "90%"],
  ["O=C1NC[C@H](c2cncs2)[C@H]1C(=O)Nc1ccccc1F", "0%"],
  ["COc1ccc([C@H]2CN(C)C(=O)[C@@H]2C(=O)Nc2cccc(F)c2F)cc1", "90%"],
  ["COc1ccc([C@H]2CNC(=O)[C@@H]2C(=O)Nc2cccc(F)c2F)cc1", "60%"],
  ["CN1C[C@H](c2ccc(C(F)(F)F)cc2)[C@@H](C(=O)Nc2cccnc2F)C1=O", "90%"]
]}

###

tested on: pigweed (Amaranthus retroflexus); experiment: Test A preemergence; assay type: in vivo; conditions: Amaranthus retroflexus, pre-emergence, 240 h, 500 g ai/ha, preemergence; 0 to 100 scale, 0 = no effect, 100 = complete control; read-out: Plant response rating, Pigweed
measuredProperty: pest or weed control at 500 g/ha

{"columns": ["compound", "result"],
 "data": [
  ["CN1C[C@H](c2cc(F)cc(F)c2)[C@@H](C(=O)Nc2c(F)cccc2F)C1=O", "0%"],
  ["O=C1NC[C@H](c2cc(F)c(F)c(F)c2)[C@H]1C(=O)Nc1ccc(F)c(F)c1F", "70%"],
  ["CN1C[C@H](c2cc(F)c(F)c(F)c2)[C@@H](C(=O)Nc2ccc(F)c(F)c2F)C1=O", "70%"],
  ["Cc1ccc([C@H]2CN(C)C(=O)[C@@H]2C(=O)Nc2cccc(F)c2C)cc1C", "20%"],
  ["CCc1cc(CC)cc([C@H]2CN(C)C(=O)[C@@H]2C(=O)Nc2ccccc2C(F)(F)F)c1", "0%"],
  ["CN1CC(c2cccc(OC/C=C/Cl)c2)C(C(=O)Nc2cccc(F)c2F)C1=O (stereo not drawn)", "0%"]
]}

###

system: ivy-leaved morning glory (Ipomoea hederacea); experiment: Test G Pre-Emergence Protocol; format: in vivo; settings: Ipomoea, pre-emergence, 312 h, 15.625 g ai/ha, evaluated after 13 days, read-out: Morning-glory, Ivy-leaved damage rating (100=total damage to plant; 0=no damage to plant)

{"columns": ["molecule", "targetEntity", "outputUnit", "pest or weed control at 15.625 g/ha"],
 "data": [
  ["CN1C[C@H](c2ccc(C(F)(F)F)cc2)[C@@H](C(=O)Nc2cccnc2F)C1=O", "ivy-leaved morning glory (Ipomoea hederacea)", "%", 0],
  ["CN1C[C@@H](c2ccc(C(F)(F)F)cc2)[C@H](C(=O)Nc2ncc[nH]2)C1=O (racemic)", "ivy-leaved morning glory (Ipomoea hederacea)", "%", 0],
  ["Cc1csc(NC(=O)[C@@H]2C(=O)N(C)C[C@H]2c2ccc(C(F)(F)F)cc2)c1C#N (racemic)", "ivy-leaved morning glory (Ipomoea hederacea)", "%", 0]
]}

###

Examples of compounds with documented pest or weed control at 125 g/ha follow.
system: pigweed (Amaranthus retroflexus); assay: Test A postemergence; type: in vivo; conditions: Amaranthus retroflexus, post-emergence, 240 h, 125 g ai/ha, postemergence, visual injury vs untreated controls after approx. 10 d; 0 = no effect, 100 = complete control; read-out: Pigweed plant response rating (0 to 100 scale)

{"columns": ["compound", "pest or weed control at 125 g/ha [%]"],
 "data": [
  ["O=C1NC[C@H](c2ccc(Cl)c(F)c2)[C@H]1C(=O)Nc1cccc(F)c1F", 70],
  ["COc1ccc(C(F)(F)F)cc1[C@H]1CN(C)C(=O)[C@@H]1C(=O)Nc1ccccc1F", 0],
  ["CN1CC(c2cccc(C(F)(F)F)c2)C(C(=O)Nc2ccccc2CO)C1=O (centres unmarked)", 0],
  ["COc1cc(C(F)(F)F)ccc1[C@H]1CNC(=O)[C@@H]1C(=O)Nc1cccc(F)c1F", 0],
  ["CON1CC[C@H](c2cccc(C(F)(F)F)c2)[C@@H](C(=O)Nc2ccccc2C(F)(F)F)C1=O", 0],
  ["CSc1ccccc1NC(=O)[C@H]1C(=O)N(C)C[C@@H]1c1ccc(F)c(Oc2ccccc2)c1", 30],
  ["COc1cc([C@H]2CN(C)C(=O)[C@@H]2C(=O)Nc2ccccc2SC)cc(OC)c1OC", 0],
  ["Cc1cccc([C@H]2CN(C)C(=O)[C@@H]2C(=O)Nc2ccc(F)c(F)c2F)c1", 0]
]}

###

test system: Kochia (Kochia scoparia); assay: Test A postemergence; assay type: in vivo; conditions: Bassia scoparia, post-emergence, 240 h, 125 g ai/ha, Postemergence; visual injury after approximately 10 d; 0 to 100 scale where 0 is no effect and 100 is complete control; read-out: Plant response rating, Kochia
This listing pairs compounds with measured pest or weed control at 125 g/ha.

{"columns": ["smilesRecord", "pest or weed control at 125 g/ha [%]"],
 "data": [
  ["COc1c(F)ccc([C@H]2CNC(=O)[C@@H]2C(=O)Nc2ccccc2S(C)(=O)=O)c1Cl", 0],
  ["CCOc1cccc([C@H]2CN(C)C(=O)[C@@H]2C(=O)Nc2cccc(F)c2F)c1", 30],
  ["CN1C[C@H](c2cc(F)cc(C(F)(F)F)c2)[C@@H](C(=O)Nc2cccc(Cl)c2F)C1=O", 0],
  ["COc1ccc([C@H]2CN(C)C(=O)[C@@H]2C(=O)Nc2cccc(F)c2F)cc1F", 70]
]}

###

Parameter: pest or weed control at 250 g/ha. Scope: all listed entries.
Test system: rice (Oryra sativa)
Assay: Test B flooded paddy test
Format: in vivo
Conditions: Oryza sativa, 250 g ai/ha, Flood; 0 to 100 scale where 0 is no effect and 100 is complete control; read-out: Rice plant response rating
Experimental: Plant species in the flooded paddy test selected from rice (Oryra sativa), sedge, umbrella (small-flower umbrella sedge, Cyperus difformis), ducksalad (Heteranthera limosa), and barnyardgrass (Echinochloa crus-galli) were grown to the 2-leaf stage for testing. […] Treated plants and controls were maintained in a greenhouse for 13 to 15 d, after which time all species were compared to controls and visually evaluated. […]

{"columns": ["molecule", "pest or weed control at 250 g/ha"],
 "data": [
  ["O=C1NC[C@H](c2csc3c2CCCC3)[C@H]1C(=O)Nc1cccc(F)c1F [Compound 1163]", "0%"],
  ["CON1CC[C@H](c2cccc(C(F)(F)F)c2)[C@@H](C(=O)Nc2cccc(F)c2F)C1=O [Compound 1169]", "0%"],
  ["Cc1cc([C@H]2CN(C)C(=O)[C@@H]2C(=O)Nc2ccc(F)c(F)c2F)ccc1Br [Compound 1101]", "0%"],
  ["CN1C[C@H](c2ccc(C#N)c(F)c2)[C@@H](C(=O)Nc2ccccc2F)C1=O [Compound 1190]", "40%"],
  ["Cc1ccc([C@H]2CN(C)C(=O)[C@@H]2C(=O)Nc2cnccc2C(F)(F)F)cc1 [Compound 1067]", "0%"]
]}

###

tested on: barnyardgrass (Echinochloa crus-galli); experiment: Test A preemergence; format: in vivo; settings: Echinochloa crus-galli, pre-emergence, 240 h, 500 g ai/ha, preemergence; 0 to 100 scale, 0 = no effect, 100 = complete control; read-out: Plant response rating, Barnyardgrass
pest or weed control at 500 g/ha overview

{"columns": ["smilesRecord", "pest or weed control at 500 g/ha, %"],
 "data": [
  ["C=CCN1C[C@H](c2ccc(OC)c(F)c2)[C@@H](C(=O)Nc2ccccc2C(F)(F)F)C1=O", 0],
  ["O=C1NC[C@H](c2ccc(C(F)(F)F)cc2)[C@H]1C(=O)Nc1ccccc1C1CC1", 0],
  ["CCc1ccc([C@H]2CNC(=S)[C@@H]2C(=O)Nc2cccc(F)c2F)cc1", 100],
  ["O=C1NC[C@H](c2cccc(C(F)(F)F)c2)[C@H]1C(=O)Nc1ccccc1C1CC1", 30],
  ["O=C1NC[C@H](c2cnc(C(F)(F)F)nc2)[C@H]1C(=O)Nc1ccccc1F", 0],
  ["O=C1NC[C@H](c2cccc3c2OC(F)(F)O3)[C@H]1C(=O)Nc1ccccc1F", 100]
]}

These measurements were taken from patent US12077503B2.
